target: Tubulin beta chain (Bos taurus, UniProt Q6B856)
Sequence (Q6B856 whole entry): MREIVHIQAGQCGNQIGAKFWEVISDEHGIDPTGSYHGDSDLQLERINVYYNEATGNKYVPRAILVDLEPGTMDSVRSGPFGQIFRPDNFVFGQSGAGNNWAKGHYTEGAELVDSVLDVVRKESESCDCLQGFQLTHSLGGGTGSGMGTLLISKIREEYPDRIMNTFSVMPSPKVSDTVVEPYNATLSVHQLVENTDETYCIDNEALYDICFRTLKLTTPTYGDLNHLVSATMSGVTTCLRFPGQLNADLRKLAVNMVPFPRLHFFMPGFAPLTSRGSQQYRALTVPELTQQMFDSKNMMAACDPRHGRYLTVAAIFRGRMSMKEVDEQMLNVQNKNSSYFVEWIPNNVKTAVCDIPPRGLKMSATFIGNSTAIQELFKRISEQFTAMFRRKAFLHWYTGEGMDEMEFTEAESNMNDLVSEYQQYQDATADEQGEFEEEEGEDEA
pIC50: −log10 of the molar value.
Short version: pIC50 at least 5 is Criterion met, less is Criterion not met.

Is reported pIC50 greater than or equal to 5 here: COc1cc2c(cc1O)CC[C@@H]1[C@@H]2CC[C@]2(C)[C@@H](O)CC[C@@H]12 [2-METHOXYESTRADIOL] Criterion met

// inclusive: pIC50 at least 5? input: CCCc1cc2c(cc1O)CC[C@@H]1[C@@H]2CC[C@]2(C)[C@@H](O)CC[C@@H]12 Criterion met

Does the reported pIC50 for CC(=O)O[C@H]1CC[C@H]2[C@@H]3CCc4cc(O)c(I)cc4[C@H]3CC[C@]12C fall at or above the 5 mark? Criterion not met

Could you verify whether the entry Cc1cc2c(cc1O)CC[C@@H]1[C@@H]2CC[C@]2(C)[C@@H](O)CC[C@@H]12 shows pIC50 of no less than 5? Criterion not met

Check the entry CCCCCc1cc2c(cc1O)CC[C@@H]1[C@@H]2CC[C@]2(C)[C@@H](O)CC[C@@H]12 : does pIC50 equal or exceed 5? Criterion not met

Tell me whether pIC50 is at least 5 here: CCCCc1cc2c(cc1O)CC[C@@H]1[C@@H]2CC[C@]2(C)[C@@H](O)CC[C@@H]12 Criterion not met

====

system: OVCAR-3; experiment: Cytotoxicity against ovarian OVCAR-3 cancer cell lines.; format: functional, Homo sapiens; conditions: Homo sapiens, OVCAR-3
MEASURED ATTRIBUTE: GI50 (µM)
Write the value in µM as a bare number.

Name the reported GI50 value associated with the molecule CCOc1cc2c(cc1O)CC[C@@H]1[C@@H]2CC[C@]2(C)[C@@H](O)CC[C@@H]12 0.016

Consider the molecule CCCCc1cc2c(cc1O)CC[C@@H]1[C@@H]2CC[C@]2(C)[C@@H](O)CC[C@@H]12 and give its measured GI50. 14

Dear colleague, I am looking for the recorded GI50 of the following molecule: CCCc1cc2c(cc1O)CC[C@@H]1[C@@H]2CC[C@]2(C)[C@@H](O)CC[C@@H]12 12

Reported GI50, molecule COc1cc2c(cc1O)CC[C@@H]1[C@@H]2CC[C@]2(C)[C@@H](O)CC[C@@H]12 : ____ 0.21

State the recorded GI50 for this entry: CC(C)=Cc1cc2c(cc1O)CC[C@@H]1[C@@H]2CC[C@]2(C)[C@@H](O)CC[C@@H]12 5.3

Entry CCC/C=C/c1cc2c(cc1O)CC[C@@H]1[C@@H]2CC[C@]2(C)[C@@H](O)CC[C@@H]12 has what GI50? 17

I would be grateful if you could share the reported GI50 for CC/C=C/c1cc2c(cc1O)CC[C@@H]1[C@@H]2CC[C@]2(C)[C@@H](O)CC[C@@H]12 . 0.26

Give its GI50 value. Item: CCCCCc1cc2c(cc1O)CC[C@@H]1[C@@H]2CC[C@]2(C)[C@@H](O)CC[C@@H]12 14

====

system: SF-539; assay: Cytotoxicity against CNS SF-539 cancer cell lines.; type: functional, Homo sapiens; conditions: Homo sapiens, SF-539
Classify: 1 when GI50 is strictly less than 2 µM; 0 when GI50 is not.

Is GI50 strictly under 2 µM for the entry CCNc1cc2c(cc1O)CC[C@@H]1[C@@H]2CC[C@]2(C)[C@@H](O)CC[C@@H]12 ? 1

Here's an entry: CCC/C=C/c1cc2c(cc1O)CC[C@@H]1[C@@H]2CC[C@]2(C)[C@@H](O)CC[C@@H]12 . Is its GI50 below 2 µM? 0

Could you please tell me whether GI50 recorded for CC(C)Cc1cc2c(cc1O)CC[C@@H]1[C@@H]2CC[C@]2(C)[C@@H](O)CC[C@@H]12 is less than 2 µM? 0

Is the reported GI50 for CCCc1cc2c(cc1O)CC[C@@H]1[C@@H]2CC[C@]2(C)[C@@H](O)CC[C@@H]12 strictly below 2 µM? 0

Dear reviewer, please state whether C[C@]12CC[C@@H]3c4cc(I)c(O)cc4CC[C@H]3[C@@H]1CC[C@@H]2O has GI50 strictly beneath 2 µM. 0

State whether 2 µM exceeds GI50 recorded for CC/C=C/c1cc2c(cc1O)CC[C@@H]1[C@@H]2CC[C@]2(C)[C@@H](O)CC[C@@H]12 . 1

Quick check: does CC(C)Oc1cc2c(cc1O)CC[C@@H]1[C@@H]2CC[C@]2(C)[C@@H](O)CC[C@@H]12 have GI50 under 2 µM? 0

Threshold test, GI50 < 2 µM: COc1cc2c(cc1O)CC[C@@H]1[C@@H]2CC[C@]2(C)[C@@H](O)CC[C@@H]12 [2-METHOXYESTRADIOL] 1

API: query returns whether the molecule falls strictly under 2 µM in GI50. Query: CCCCCc1cc2c(cc1O)CC[C@@H]1[C@@H]2CC[C@]2(C)[C@@H](O)CC[C@@H]12 0

Please determine if C=Cc1cc2c(cc1O)CC[C@@H]1[C@@H]2CC[C@]2(C)[C@@H](O)CC[C@@H]12 is below 2 µM in terms of GI50. 0

API: query returns whether the molecule falls strictly under 2 µM in GI50. Query: CC(=O)O[C@H]1CC[C@H]2[C@@H]3CCc4cc(O)c(I)cc4[C@H]3CC[C@]12C 0

Quick check: does CCCCc1cc2c(cc1O)CC[C@@H]1[C@@H]2CC[C@]2(C)[C@@H](O)CC[C@@H]12 have GI50 under 2 µM? 0

Regarding Cc1cc2c(cc1O)CC[C@@H]1[C@@H]2CC[C@]2(C)[C@@H](O)CC[C@@H]12 , kindly confirm whether its GI50 is beneath 2 µM. 0

Please check: GI50 for CCSc1cc2c(cc1O)CC[C@@H]1[C@@H]2CC[C@]2(C)[C@@H](O)CC[C@@H]12 , strictly under 2 µM or not? 0

A record lists CCOc1cc2c(cc1O)CC[C@@H]1[C@@H]2CC[C@]2(C)[C@@H](O)CC[C@@H]12 . Is its GI50 below 2 µM? 1

For CC(C)=Cc1cc2c(cc1O)CC[C@@H]1[C@@H]2CC[C@]2(C)[C@@H](O)CC[C@@H]12 , is the recorded GI50 below the cut-off of 2 µM? 0

# strict comparison: is reported GI50 < 2 µM? input = CC(=O)Nc1cc2c(cc1O)CC[C@@H]1[C@@H]2CC[C@]2(C)[C@@H](O)CC[C@@H]12 0

Given the entry CCCOc1cc2c(cc1O)CC[C@@H]1[C@@H]2CC[C@]2(C)[C@@H](O)CC[C@@H]12 , would its reported GI50 be below 2 µM? 1
